Experiment: chemical genetic growth profiling, strain panel (AID 1159580);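 further: tested at 20 µM; growth read once vehicle control cultures reached saturation at 30 °C; 1 = growth at the plate median or of vehicle wells; lower values mean less growth of the strain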
Details: S. cerevisiae deletion strains, growth OD, locus YCL011C, strain gbp2, hits give low values
Hit rate of the full screen: of about 5,500 compounds, about 2,000 (36%) were called active. About 18% were inconclusive and are not listed. This is one part of the list.
Threshold 1: normalized growth strictly smaller gives TRUE, otherwise FALSE.

[[record]]
compound = "C[C@@H]1CC[C@H]2C(C)(C)C3CC12CC[C@@]3(C)O (stereo partly specified)"
answer_label = "TRUE"

[[record]]
compound = "Cc1oncc1C(=O)Nc1ccc(C(F)(F)F)cc1"
answer_label = "TRUE"

[[record]]
compound = "CC1CCC(NC(=O)N(CCCl)N=O)CC1 (stereo unspecified)"
answer_label = "TRUE"

[[record]]
compound = "Cc1cc(CC(=O)O)n(C)c1C(=O)c1ccc(Cl)cc1"
answer_label = "FALSE"

[[record]]
compound = "CN[C@@H]1C(OC2[C@H](O[C@H]3[C@H](O)[C@@H](O)[C@H](N=C(N)N)[C@@H](O)[C@@H]3N=C(N)N)OC(C)[C@]2(O)CO)OC(CO)C(O)C1O (stereo partly specified)"
answer_label = "FALSE"

[[record]]
compound = "N[C@@H](C(=O)O)[C@@H](O)[C@H](O)[C@H](O)CO"
answer_label = "FALSE"

[[record]]
compound = "CN1CCC[C@@H]1CCO[C@](C)(c1ccccc1)c1ccc(Cl)cc1"
answer_label = "TRUE"

[[record]]
compound = "O=NN(CCCl)C(=O)NCCCl"
answer_label = "TRUE"

[[record]]
compound = "NCC[C@@H](O)C(=O)N[C@@H]1C[C@H](N)[C@@H](O[C@H]2O[C@H](CN)[C@@H](O)[C@H](O)[C@H]2O)[C@H](O)[C@H]1O[C@H]1O[C@H](CO)[C@@H](O)[C@H](N)C1O (stereo partly specified)"
answer_label = "FALSE"

[[record]]
compound = "Clc1ccc(C(c2ccccc2Cl)C(Cl)Cl)cc1 (stereo unspecified)"
answer_label = "TRUE"

[[record]]
compound = "COc1cc(NS(C)(=O)=O)ccc1Cc1c2ccccc2nc2ccccc12"
answer_label = "TRUE"


----------
Assay: chemical genetic growth profiling, strain panel (AID 1159580);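 further: tested at 20 µM; growth read once vehicle control cultures reached saturation at 30 °C; 1 = growth at the plate median or of vehicle wells; lower values mean less growth of the strain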
Conditions: S. cerevisiae deletion strains, growth OD, locus YDR335W, strain msn5, hits give low values
The whole screen tested about 5,500 compounds, of which about 2,000 (36%) were called active. Roughly 18% stayed inconclusive and do not appear here. The list shows a part of the results.
Below: a set of entries, each annotated with reported normalized growth.
observed_property: normalized growth

[[record]]
molecule = "CC(C)c1nc(N(C)S(C)(=O)=O)nc(-c2ccc(F)cc2)c1/C=C/[C@@H](O)C[C@@H](O)CC(=O)O"
observed_property = "normalized growth"
observed_measurement = 1.02

[[record]]
molecule = "CCCCCCCCCCCCCC(=O)OC1C(C)C2(O)C(C=C(CO)CC3(O)C(=O)C(C)=CC32)C2C(C)(C)C12OC(C)=O (centres undefined)"
observed_property = "normalized growth"
observed_measurement = 0.987

[[record]]
molecule = "NC1(C(=O)O)CCCC1"
observed_property = "normalized growth"
observed_measurement = 1.01

[[record]]
molecule = "CC(=O)N[C@@H](CCC(=O)O)C(=O)O"
observed_property = "normalized growth"
observed_measurement = 1.02

[[record]]
molecule = "CC(=O)OC/C=C(\\C)CC/C=C(\\C)CC/C=C(\\C)CC/C=C(\\C)CC/C=C(\\C)CC/C=C(\\C)CC/C=C(\\C)CC/C=C(\\C)CCC=C(C)C"
observed_property = "normalized growth"
observed_measurement = 0.982

[[record]]
molecule = "CC1C/C=C/C=C/C=C/C=C/C(O[C@@H]2O[C@H](C)[C@@H](O)[C@H](N)[C@@H]2O)CC2OC(O)(CC(O)CC3OC3/C=C/C(=O)O1)CC(O)C2C(=O)O (some centres undefined)"
observed_property = "normalized growth"
observed_measurement = 0.985

[[record]]
molecule = "Fc1ccc([C@@H]2CCNC[C@H]2COc2ccc3c(c2)OCO3)cc1"
observed_property = "normalized growth"
observed_measurement = 1.01

[[record]]
molecule = "CC(C)=CC1C(C(=O)OCc2cccc(Oc3ccccc3)c2)C1(C)C (centres undefined)"
observed_property = "normalized growth"
observed_measurement = 1.02

[[record]]
molecule = "NC1(C(=O)O)CC1"
observed_property = "normalized growth"
observed_measurement = 1.04

